Biological target: T1, human Trop-2-His protein (human, UniProt P09758 27-274)
T1 construct: extracellular domain; Assay paragraphs say only 'Trop-2-His'; also called hTrop-2; Kactus Cat #TRP-HM121; not shown: His tag
T1 sequence (looked up): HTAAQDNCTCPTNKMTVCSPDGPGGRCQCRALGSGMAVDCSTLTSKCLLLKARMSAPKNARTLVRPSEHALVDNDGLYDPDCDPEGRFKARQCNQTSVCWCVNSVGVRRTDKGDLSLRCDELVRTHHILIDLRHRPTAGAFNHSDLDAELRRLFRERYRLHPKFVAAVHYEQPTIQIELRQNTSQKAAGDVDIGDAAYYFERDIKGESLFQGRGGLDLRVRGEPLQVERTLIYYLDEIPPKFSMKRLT
Assay: BLI (Gator Prime), LEM supernatant Ab on HFC probe
Please use 1 whenever kon is not below 500000 M⁻¹ s⁻¹, and -1 whenever it is.

Worked examples, 4 binders total:
1. 5D4 (antibody, V domains shown, Rabbit-derived clone; LEM construct: VH + rabbit IgG CH1 + human IgG1 CH2-CH3) VH: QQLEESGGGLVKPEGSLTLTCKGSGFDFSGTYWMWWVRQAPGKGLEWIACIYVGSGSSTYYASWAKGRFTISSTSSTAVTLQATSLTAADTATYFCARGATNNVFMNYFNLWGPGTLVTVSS VL: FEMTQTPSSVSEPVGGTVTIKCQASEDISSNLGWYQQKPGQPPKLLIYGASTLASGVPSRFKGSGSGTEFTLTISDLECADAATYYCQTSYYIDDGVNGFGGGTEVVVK = -1
2. 9F7 (antibody, V domains shown, Rabbit-derived clone; LEM construct: VH + rabbit IgG CH1 + human IgG1 CH2-CH3) VH: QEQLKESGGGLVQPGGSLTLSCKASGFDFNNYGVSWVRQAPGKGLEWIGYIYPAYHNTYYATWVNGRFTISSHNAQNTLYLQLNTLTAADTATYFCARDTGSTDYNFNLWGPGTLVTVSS VL: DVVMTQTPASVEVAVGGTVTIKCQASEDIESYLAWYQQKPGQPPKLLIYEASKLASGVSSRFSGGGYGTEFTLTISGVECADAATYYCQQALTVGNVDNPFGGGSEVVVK = 1
3. 69H10 (antibody, V domains shown, Rabbit-derived clone; LEM construct: VH + rabbit IgG CH1 + human IgG1 CH2-CH3) VH: QEQLKESGGGLVQPGGSLKLSCKASGFDFNKYGVSWVRQAPGKGLEWIAYIYPAFHNTYYATWVNGRFTISSHNAQNTLYLQLNTLTAADTATYFCARDAGTTDYNFNLWGPGTLVTVSS VL: DVVMTQTASPVSAAVGGTVTIKCQASQSIYSYLSWYQQKPGQPPKLLIYEASKLASGVSSRFSGSGYGTEFTLTISGVECADAATYYCQQALTVGNVDNPFGGGSEVVVK = -1
4. 9D7 (antibody, V domains shown, Rabbit-derived clone; LEM construct: VH + rabbit IgG CH1 + human IgG1 CH2-CH3) VH: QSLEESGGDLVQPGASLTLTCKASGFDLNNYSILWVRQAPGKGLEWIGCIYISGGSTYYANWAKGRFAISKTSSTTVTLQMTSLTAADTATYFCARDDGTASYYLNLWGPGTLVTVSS VL: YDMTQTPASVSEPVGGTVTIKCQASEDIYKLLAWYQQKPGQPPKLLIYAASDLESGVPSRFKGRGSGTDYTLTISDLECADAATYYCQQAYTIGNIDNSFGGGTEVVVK = -1

QUERY: // inclusive: kon at least 500000 M⁻¹ s⁻¹? input: 74F11/15F5 (antibody, human IgG1, V domains shown, LEM construct: VH + rabbit IgG CH1 + human IgG1 CH2-CH3) VH: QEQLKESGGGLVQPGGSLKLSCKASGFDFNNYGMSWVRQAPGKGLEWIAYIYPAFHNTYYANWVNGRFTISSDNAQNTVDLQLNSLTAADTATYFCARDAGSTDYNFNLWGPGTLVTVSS VL: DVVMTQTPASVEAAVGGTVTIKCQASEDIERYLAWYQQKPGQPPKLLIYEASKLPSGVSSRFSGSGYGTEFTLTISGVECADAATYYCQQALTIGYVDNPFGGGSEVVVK
RESULT: 1

QUERY: // inclusive: kon at least 500000 M⁻¹ s⁻¹? input: 3E9 (antibody, V domains shown, Rabbit-derived clone; LEM construct: VH + rabbit IgG CH1 + human IgG1 CH2-CH3) VH: QEQLKESGGGLVQPGGSLKLSCKASGFDFNNYGVSWVRQAPGKGLEWIAYIYPAFHNRYYANWVNGRFTISSDNAQNTVYLQLNSLTAADTATYFCARDAGSTDYKFNLWGPGTLVTVSS VL: DVVMTQTPASVSAAVGGTVTIKCQASEDIESYLAWYQQKPGQPPKLLIYDASTLASGVSSRFSGSGYGTEFTLTISGVECADAATYYCQQDLTVGNVDNPFGGGSEVVVE
RESULT: 1

QUERY: // inclusive: kon at least 500000 M⁻¹ s⁻¹? input: 63H3 (antibody, V domains shown, Rabbit-derived clone; LEM construct: VH + rabbit IgG CH1 + human IgG1 CH2-CH3) VH: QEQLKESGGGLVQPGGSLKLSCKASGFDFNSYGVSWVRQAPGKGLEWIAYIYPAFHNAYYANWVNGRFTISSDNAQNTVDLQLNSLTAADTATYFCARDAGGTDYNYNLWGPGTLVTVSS VL: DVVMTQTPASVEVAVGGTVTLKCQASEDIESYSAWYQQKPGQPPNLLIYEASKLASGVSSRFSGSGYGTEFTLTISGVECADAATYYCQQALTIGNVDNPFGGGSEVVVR
RESULT: 1

QUERY: // inclusive: kon at least 500000 M⁻¹ s⁻¹? input: 10E12 (antibody, V domains shown, Rabbit-derived clone; LEM construct: VH + rabbit IgG CH1 + human IgG1 CH2-CH3) VH: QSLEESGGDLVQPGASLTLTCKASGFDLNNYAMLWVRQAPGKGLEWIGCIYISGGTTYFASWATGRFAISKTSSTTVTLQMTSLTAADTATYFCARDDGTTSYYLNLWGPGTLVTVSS VL: YDMTQTPASVSAAVGGTVTIKCQASEDIYSLLAWYQQKPGQPPKLLIYDASDLASGVPSRFKGSGSGTEYTLTISDLECDDAATYYCQQAYTIGNIDNAFGGGTEVVVK
RESULT: -1
